# experimental-target: Androgen receptor (Homo sapiens) (UniProt P10275)
# Sequence (P10275 whole entry, looked up): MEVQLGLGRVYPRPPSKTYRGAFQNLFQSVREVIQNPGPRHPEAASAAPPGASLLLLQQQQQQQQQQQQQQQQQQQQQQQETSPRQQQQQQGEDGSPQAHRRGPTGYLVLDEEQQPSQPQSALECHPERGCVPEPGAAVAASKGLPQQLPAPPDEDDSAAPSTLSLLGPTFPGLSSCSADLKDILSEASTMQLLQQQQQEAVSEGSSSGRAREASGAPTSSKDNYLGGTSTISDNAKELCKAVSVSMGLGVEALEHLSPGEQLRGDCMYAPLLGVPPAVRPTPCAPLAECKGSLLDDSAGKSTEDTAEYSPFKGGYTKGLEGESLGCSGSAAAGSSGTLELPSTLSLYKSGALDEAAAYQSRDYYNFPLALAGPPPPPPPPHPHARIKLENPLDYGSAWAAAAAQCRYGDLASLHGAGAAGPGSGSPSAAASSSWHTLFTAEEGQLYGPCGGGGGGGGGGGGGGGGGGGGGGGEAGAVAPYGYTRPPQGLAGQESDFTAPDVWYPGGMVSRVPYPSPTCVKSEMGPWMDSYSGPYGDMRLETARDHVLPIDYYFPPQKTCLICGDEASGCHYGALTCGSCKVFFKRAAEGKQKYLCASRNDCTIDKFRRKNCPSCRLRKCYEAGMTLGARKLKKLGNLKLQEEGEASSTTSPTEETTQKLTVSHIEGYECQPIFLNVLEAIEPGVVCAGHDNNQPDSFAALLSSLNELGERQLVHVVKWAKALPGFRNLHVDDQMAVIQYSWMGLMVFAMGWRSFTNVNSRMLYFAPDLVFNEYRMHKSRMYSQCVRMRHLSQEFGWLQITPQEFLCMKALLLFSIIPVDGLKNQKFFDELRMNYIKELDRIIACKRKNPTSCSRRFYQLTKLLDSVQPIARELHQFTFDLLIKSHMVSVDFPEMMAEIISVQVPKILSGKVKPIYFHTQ
# protocol: qHTS assay for small molecule agonists of androgen receptor signaling (AID 588515); further: on the % scale 0 is the no-effect control and ±100 the full control effect
# run-conditions: AR-UAS-bla HEK293, beta-lactamase ratio, agonist 16 h; stronger effect = higher value
Results filed as inconclusive are left out.
Can you tell me activation for the items I'm about to list?
Answers are plain numbers, in %.

Field: example entries. Status: answers known.
>>> print(df.to_string())
                                   compound                       experimental_target  scale_unit  measured_result
0                    O=C1NCCN1Cc1ccc(Cl)nc1  Androgen receptor (Homo sapiens) (UniProt P10275)           %             5.64
1                  c1ccc2c(c1)[nH]c1ccccc12  Androgen receptor (Homo sapiens) (UniProt P10275)           %            0.372
2  CC(C)=C[C@@H]1[C@@H](C(=O)OCN2C(=O)C3=C(CCCC3)C2=O)C1(C)C  Androgen receptor (Homo sapiens) (UniProt P10275)           %            0.858
3                      N#Cc1cc(I)c(O)c(I)c1  Androgen receptor (Homo sapiens) (UniProt P10275)           %             6.03
4  COc1ccc(/C(=C/C(=O)N2CCOCC2)c2ccc(Cl)cc2)cc1OC  Androgen receptor (Homo sapiens) (UniProt P10275)           %            -2.83
5  O=C(O)C1(O)c2ccccc2-c2ccc(Cl)cc21 (centres undefined)  Androgen receptor (Homo sapiens) (UniProt P10275)           %            -1.34

For every listed record, write down its activation.
1. CCC[CH2][Sn](=[O])[CH2]CCC
2. [Ga]#[As]
3. CCOP(=O)(OCC)SCSCC
4. c1cc(OCC2CO2)cc(OCC2CO2)c1 (centres undefined)
5. C=CC(=O)OCC(CC)(COC(=O)C=C)COC(=O)C=C
6. O=[N+]([O-])c1ccc(Cl)c([N+](=O)[O-])c1
7. O=C1C2(Cl)C3(Cl)C4(Cl)C(Cl)(Cl)C5(Cl)C3(Cl)C1(Cl)C5(Cl)C24Cl (centres undefined)

Result:
1: 0.348; 2: 2.63; 3: 6.75; 4: -20.7; 5: -16.7; 6: -0.974; 7: 0.62

Request: Field request: activation | item: CNC(=O)O/N=C/C(C)(C)S(C)(=O)=O
Result: 1.32

----------
Would you kindly list max response for each of these compounds?
# protocol: qHTS assay for small molecule agonists of retinoid X receptor alpha signaling (AID 588544)
# run-conditions: HEK293T RXRa-UAS-bla, beta-lactamase reporter, 18 h; 530 nm emission
Records with an inconclusive call do not appear.
One number for each entry, in %.

The following compounds have reported results that may help.
compound	max response / %
COc1ccc(/C(=C/C(=O)N2CCOCC2)c2ccc(Cl)cc2)cc1OC	28.2
CNC(=O)O/N=C(\SC)C(=O)N(C)C	-12.6
CCCSP(=O)(OCC)Oc1ccc(Br)cc1Cl (stereo not drawn)	0.651

# batch size: 2; output max response per entry
1. CCCCCCCCCCCCCCC(Br)C(=O)O (stereo not drawn)
2. C/C=C(\C)C(=O)O[C@H]1C[C@@H](OC(C)=O)[C@@]2(C(=O)OC)CO[C@H]3[C@@H](O)[C@@](C)([C@]45O[C@@]4(C)[C@H]4C[C@@H]5O[C@@H]5OC=C[C@@]54O)[C@H]4[C@]1(CO[C@]4(O)C(=O)OC)[C@@H]32

Result:
1: -6.32; 2: -0.369

Required: max response, one value per compound below.
1. CC(=NC#N)N(C)Cc1ccc(Cl)nc1
2. N#Cc1cc(I)c(O)c(I)c1
3. CCSC(=O)N(CC)C1CCCCC1

Result:
-1.69
19.3
-3.68

Would you be so kind as to report max response for each listed record?
1. O=C1C=CC(=O)c2ccccc21
2. COc1cc(OC)nc(Sc2cccc(Cl)c2C(=O)O)n1

Result:
12.1
-16.4
